Tested on: RIVA
Assay: growth inhibition by drug alone (1 - RLU/untreated control) (fraction); higher = stronger inhibition
Settings: 100 nM; time (day): 6; 177Lu-lilotomab satetraxetan 0 ug/ml
Where a name gives a salt, the structure may show the parent alone.
observable: growth inhibition by drug alone
Returns: the value as a bare number; no unit string appended.

Lab note: `O=C(Nc1cccc(Cl)c1)Nc1ncc(CCNc2ncnc3ccsc23)s1` gave growth inhibition by drug alone of 0.239

Lab note: `O=C(/C=C/C#Cc1cccc(NS(=O)(=O)c2ccccc2)c1)NO` gave growth inhibition by drug alone of 0.389

Lab note: Nc1cccc2c1CN(C1CCC(=O)NC1=O)C2=O (configuration not stated) [Lenalidomide] gave growth inhibition by drug alone of -0.226

Lab note: `CS(=O)(=O)c1ccc(C(=O)Nc2ccc(Cl)c(-c3ccccn3)c2)c(Cl)c1` gave growth inhibition by drug alone of -0.299

Lab note: CO[C@H]1C[C@@H]2CC[C@@H](C)[C@@](O)(O2)C(=O)C(=O)N2CCCC[C@H]2C(=O)O[C@H]([C@H](C)C[C@@H]2CC[C@@H](OCCO)[C@H](OC)C2)CC(=O)[C@H](C)/C=C(\C)[C@@H](O)[C@@H](OC)C(=O)[C@H](C)C[C@H](C)/C=C/C=C/C=C/1C [Everolimus (RAD001)] gave growth inhibition by drug alone of 0.801

Lab note: O=C1CN2Cc3c(ccc(Cl)c3Cl)N=C2N1 [Anagrelide hydrochloride] gave growth inhibition by drug alone of 0.0727

Lab note: CC1=C(/C=C/C(C)=C/C=C/C(C)=C/C(=O)Nc2ccc(O)cc2)C(C)(C)CCC1 [Fenretinide] gave growth inhibition by drug alone of -0.461

---

System: U-2932
Test: growth inhibition by drug alone (1 - RLU/untreated control) (fraction); higher = stronger inhibition
Conditions: 1000 nM; time (day): 6; 177Lu-lilotomab satetraxetan 0 ug/ml
Binning of growth inhibition by drug alone into classes: bottom bin: < -0.05; middle bin: ≥ -0.05 and < 0.4; top bin: ≥ 0.4

Sort O=C(CCc1ccc(O)cc1)c1c(O)cc(O)cc1O [Phloretin (Dihydronaringenin)] into one of the categories.
bottom bin

Sort `CO[C@@H](C(=O)N1Cc2[nH]nc(NC(=O)c3ccc(N4CCN(C)CC4)cc3)c2C1)c1ccccc1` into one of the categories.
middle bin

Sort `Cc1ccc(Nc2nccc(N(C)c3ccc4c(C)n(C)nc4c3)n2)cc1S(N)(=O)=O` into one of the categories.
bottom bin

Sort `Nc1ncn([C@@H]2O[C@H](CO)[C@@H](O)[C@H]2O)c(=O)n1` into one of the categories.
middle bin

Sort `CC(C)Oc1cc(Nc2nc(N[C@@H](C)c3ccc(F)cn3)ncc2Cl)n[nH]1` into one of the categories.
bottom bin

Sort `Cc1ccc([C@@H]2O[C@H](CO)[C@@H](O)[C@H](O)[C@H]2O)cc1Cc1ccc(-c2ccc(F)cc2)s1` into one of the categories.
bottom bin

Sort COc1c(C)c2c(c(O)c1C/C=C(\C)CCC(=O)OCCN1CCOCC1)C(=O)OC2 [Mycophenolate mofetil (CellCept)] into one of the categories.
top bin

Sort `CC[C@@H]1/C=C(\C)C[C@H](C)C[C@H](OC)[C@H]2O[C@@](O)(C(=O)C(=O)N3CCCC[C@H]3C(=O)O[C@H](/C(C)=C/[C@@H]3CC[C@H](Cl)[C@H](OC)C3)[C@H](C)[C@@H](O)CC1=O)[C@H](C)C[C@@H]2OC` into one of the categories.
top bin

Sort `Oc1cccc(-c2nc(N3CCOCC3)c3oc4ncccc4c3n2)c1` into one of the categories.
top bin

Sort `COc1c(C)cnc(Cn2cnc3c(Cl)nc(N)nc32)c1C` into one of the categories.
top bin

Sort `COc1cc2nccc(Oc3ccc(NC(=O)Nc4cc(C)on4)c(Cl)c3)c2cc1OC` into one of the categories.
middle bin

Sort `CN(C)Cc1c(C(=O)NCCOc2ccc(C(=O)NO)cc2)oc2ccccc12` into one of the categories.
top bin

Sort `COc1ccc(C2=N[C@@H](c3ccc(Cl)cc3)[C@@H](c3ccc(Cl)cc3)N2C(=O)N2CCNC(=O)C2)c(OC(C)C)c1` into one of the categories.
bottom bin

Sort `CC(C)C[C@H](NC(=O)CNC(=O)c1cc(Cl)ccc1Cl)B(O)O` into one of the categories.
top bin

Sort `NC(=O)Nc1sc(-c2ccc(F)cc2)cc1C(N)=O` into one of the categories.
middle bin
